From: patent US9433592B2

CC50 by entry:
Protocol Notes: in vitro
Details: human

Previously resolved entries follow.
CCN[C@H]1CN(CCCOC)S(=O)(=O)c2sc(S(N)(=O)=O)cc21 [brinzolamide] = ≥ 666 µM
Cc1nccc2c1[nH]c1cc(O)ccc12 = 95 µM

Now for another entry.
## Task Fill in the blank: the reported CC50 of C1COC(NC(C2CC2)C2CC2)=N1 is ____.
## Result 1120 µM
